For each record, write down the corresponding EC50.
- study.target: RSV A2 pre-F (RSV A2)
- method.description: ELISA
Report only the number, with the unit µg/mL understood.

### Prompt // EC50 lookup, key: F6-115 (antibody, V domains shown) VH: QLQLHQRGAGLLKPSETLSLTCDVYGGSVSDDEWTWIRQSPGKGLEWIGQIDRTGSSNYNPSLRSRVTISPDTSNNQFSMSLTSVTAADTALYFCARGGLVVTDVGRGWDAFDVWGQGTMVTVSS VL: DIQMTQSPSSVSASVGDRITITCRASQHINNWLAWYQQKPGEAPKLLIYAASTLQRGVPSRFSGSGSGTRFTLTITSLQPEDFASYFCQQGDSFPLTFGGGTKVEIK
### Response 0.0117

### Prompt // same read-out, input: F6-141 (antibody, V domains shown) VH: QVQLAQSGAEVRRPGTSVKVSCRSSAYDFIDDSIHWVRQAPGQGLEWMGRIDPSGDTTTYAPQFQVRITLTRDTSTSTASMELNRLTSQDTAMYYCVAYERATTLAGVGASDVWGQGTWVTVSS VL: DIVMTQSPLSLSVTPGEPASISCRSSQSLLYRDGYNYLDWYLQKPGQSPQLLLYFASYRASGVPDRFSGSGSGTDFTLTITRVEPEDVGIYYCMQSLQTPFTFGPGTKLDFK
### Response 0.0166

### Prompt // same read-out, input: F6-213 (antibody, V domains shown) VH: QEQLVQSGAEVKRPGTSVKVSCKASGYAFTDYSIHWVRQAPGVGLEWMGKIYPGDGHALYAQNFQGRVTLTRDTSTASVYMELRSLRSQDTAVYYCVAYERATTLAGAGASDIWGQGTMVTVSS VL: DIVMTQSPLSLPVTPGEPASISCRSSQSLLQSDGYNYMDWYLQKPGRSPQLLIYLGSHRASGVPDRFSGSGSGTDFTLRISRVKAEDVGIYYCMQSLQSPFTFGPGTKVDIK
### Response 0.0298

### Prompt // same read-out, input: MEDI8897 (antibody, V domains shown) VH: QVQLVQSGAEVKKPGSSVMVSCQASGGLLEDYIINWVRQAPGQGPEWMGGIIPVLGTVHYGPKFQGRVTITADESTDTAYMELSSLRSEDTAMYYCATETALVVSETYLPHYFDNWGQGTLVTVSS VL: DIQMTQSPSSLSAAVGDRVTITCQASQDIVNYLNWYQQKPGKAPKLLIYVASNLETGVPSRFSGSGSGTDFSLTISSLQPEDVATYYCQQYDNLPLTFGGGTKVEIKR
### Response 0.0313

### Prompt // same read-out, input: F6-153 (antibody, V domains shown) VH: QVQLQQWGAGLLRPSETLSLTCAVSGVSLSGDYLTWIRQTPGKGLEWIGEINHSGSTNYNPSLKSRVTISVETSKNHFSLKMRSVTAADSALYYCARGWEYCHGTTCYSKAFDIWGQGTLVTVSS VL: DIQMTQSPSSLSASVGDRVTITCQASQDISNYLIWYQQKPGRAPKLLIFDASKLEKGVPPRFSGSGSGTYFTFTISSLQPEDFATYYCQQFHNLPVTFGGGTKLETK
### Response 0.018

### Prompt // same read-out, input: F6-227 (antibody, V domains shown) VH: QVQLQQSGPGLVKPSETLSLACSVSGGSMSDFYWSWIRQSPGTGLEWIGYVHHSGKVNYNPSLKARVTMSLDTSKYLLSLNLASMTAADSAVYYCAATSAFVDSSSYSPPYFDFWGQGTLITVSS VL: DIQLTQSPSSLSASVGDRVTITCQASHDITNYLNWYQQTPGKAPRLLIYVATNLETGVPSRFSGSGSGTHFTLTISSLQPEDSATYYCQQYDNLPITFGGGTRVEIR
### Response 0.0226

### Prompt // same read-out, input: F6-61 (antibody, V domains shown) VH: QVTLRQSGPALVKPTQTLTLTCTFSGFSLSTRGMCVNWIRQPPGKALEWLARIDWDDDKYYTTSLKTRLTISKDTAKNHVVLSMTNMDPVDTATYYCARIRCYDYVWGDDEVFDIWGQGTMVSVSS VL: QSVLTQPPSASGTPGQSVTISCSGSTSNIGSNNVNWYQQLPGAAPKLVIHTNDQRPSRVPDRFSGSTSGTSASLAISGLQSEDEADYYCAAWDDSLNGLLFGGGTKLTVL
### Response 0.0613

### Prompt // same read-out, input: F6-207 (antibody, V domains shown) VH: QITLKESGPTLLKPTQTLTLTCTFSGFSLTTTGVAVGWVRQPPGKALEWLALIYWDDDKRYSPSLKSRVTITKDTSKNQVLLAMTDMDPVDTATYYCAHFDYGDPEVVALFEYSYYMDVWGKGITVTVSS VL: QSVLTQPPSVSGTPGQRVTISCSGSSSNIGSNYVYWYQHLPGTAPKLLIYTNNRRPSGVPDRFSGSKSGTSASLAVSGLRSEDEADYFCAVWDDSVGGHWVFGGGTKLTVL
### Response 0.0354

### Prompt // same read-out, input: F6-210 (antibody, V domains shown) VH: QERLAQSGTEVKKPGASVKVSCRALGYTFSDYSIHWVRQAPRQGLEWMGKINTSGGTTTYAQKFQARVTLTSDTSTSTASMELSSLKIEDTAVYYCVAYERATTLAGAGASDIWGQGTLVTVSS VL: DIVMTQSPLSLPVTPGEPASISCRSSQSLLHSDGYNYLDWYLQKPGQSPHLLIYLGSNRASGVPDRFSGSGSGTDFTLKITRVEPEDVGVYYCMQSLQTPFTFGPGTKVDVK
### Response 0.0281

### Prompt // same read-out, input: F6-133 (antibody, V domains shown) VH: EVQVVESGGGLVQPGGSLRLSCAASSFSVTGSYMTWVRQAPGKGLESVSLIYSTGSTYYADSVKGRFVISRDDSKNILFLQMNNLRVEDTGVYFCARLGPAGGSWSWEFYGLDVWGQGTTVTVFS VL: CVQMTQSPSFLSASVGDRVTISCRASQGTTSYLAWYQQKPGKAPKLLIYGVSTLQTGVPSRFSGSGSGTDFTLTISNLQPEDFATYYCQQVNIFPYTFGPGTKVEIK
### Response 0.0494
